meta.source: the supplement of paper PMC8699584

system: Mv4-11; assay: cell viability relative to DMSO control (bortezomib = 0%); higher = less growth inhibition; details: 10 nM; 72 h

{"columns": ["compound", "cell viability, %"],
 "data": [
  ["Cc1ccccc1-n1c(Cn2cnc3c(N)ncnc32)nc2cccc(C)c2c1=O", 111],
  ["COC[C@H]1OC(=O)c2coc3c2[C@@]1(C)C1=C(C3=O)[C@@H]2CCC(=O)[C@@]2(C)C[C@H]1OC(C)=O [Wortmannin]", 110],
  ["O=C([O-])C(Cl)Cl.[Na+] [Sodium†Dichloroacetate]", 111],
  ["COC(=O)C1(OC)CC2OC1(C)n1c3ccccc3c3c4c(c5c6ccccc6n2c5c31)C(=O)N(C)C4 (centres undefined)", 109]
]}

---

test system: Mv4-11; test: cell viability relative to DMSO control (bortezomib = 0%); higher = less growth inhibition; settings: 10 nM; 72 h
endpoint.label: cell viability

{"columns": ["input.smiles", "endpoint.label", "measured"],
 "data": [
  ["CC(C)(C)c1cc(C=C(C#N)C#N)cc(C(C)(C)C)c1O", "cell viability", "99.7%"],
  ["O=C(O)c1nn(Cc2ccc(Cl)cc2Cl)c2ccccc12", "cell viability", "120%"],
  ["C/C(O)=C(\\C#N)C(=O)Nc1cc(Br)ccc1Br", "cell viability", "114%"],
  ["CC(=O)OC(C)(C)/C=C/C(=O)[C@](C)(O)[C@H]1[C@H](O)C[C@@]2(C)[C@@H]3CC=C4[C@H](C[C@H](O)C(=O)C4(C)C)[C@]3(C)C(=O)C[C@]12C", "cell viability", "82.9%"]
]}

---

tested on: Molm13; assay: cell viability relative to DMSO control (bortezomib = 0%); higher = less growth inhibition; conditions: 10 nM; 72 h
The molecules listed here are annotated with their cell viability.

{"columns": ["molecule", "experimental.system", "cell viability"],
 "data": [
  ["N#C/C(=C\\c1ccc(O)c(O)c1)C(N)=S", "Molm13", "91.3%"],
  ["COC[C@H]1OC(=O)c2coc3c2[C@@]1(C)C1=C(C3=O)[C@@H]2CCC(=O)[C@@]2(C)C[C@H]1OC(C)=O", "Molm13", "114%"],
  ["COc1ccc(N(C(=O)Oc2c(C)cccc2C)c2ccnc(Nc3ccc(N4CCN(C)CC4)cc3)n2)c(OC)c1", "Molm13", "94.5%"],
  ["CC(=O)N[C@H]1[C@@H](O[C@@H]2O[C@H](CC(O)[C@H]3O[C@@H](n4ccc(=O)[nH]c4=O)[C@H](O)[C@@H]3O)[C@H](O)[C@H](O)[C@H]2NC(=O)/C=C/CC(C)C)O[C@H](CO)[C@@H](N)[C@@H]1O (stereo not given in full)", "Molm13", "105%"],
  ["Cc1ccccc1-n1c(Cn2ncc3c(N)ncnc32)nc2cccc(C)c2c1=O", "Molm13", "117%"],
  ["COc1ccc2c(c[n+](C)c3c4cc5c(cc4ccc23)OCO5)c1OC [Chelerythrine chloride]", "Molm13", "115%"],
  ["O=c1[nH]c2ccccc2n1C1CCN(Cc2ccc(-c3[nH]c4cc5ncnc5cc4nc3-c3ccccc3)cc2)CC1", "Molm13", "103%"],
  ["O=C([O-])C(Cl)Cl.[Na+] [Sodium†Dichloroacetate]", "Molm13", "74%"],
  ["Cc1ccccc1-n1c(Cn2cnc3c(N)ncnc32)nc2cccc(C)c2c1=O", "Molm13", "108%"],
  ["COC(=O)C1(OC)CC2OC1(C)n1c3ccccc3c3c4c(c5c6ccccc6n2c5c31)C(=O)N(C)C4 (stereo not given)", "Molm13", "115%"]
]}

---

Measured cell viability of individual entries
tested on: Mv4-11; test: cell viability relative to DMSO control (bortezomib = 0%); higher = less growth inhibition; conditions: 10 nM; 72 h

{"columns": ["compound", "cell viability [%]"],
 "data": [
  ["N#C/C(=C\\c1ccc(O)c(O)c1)C(N)=S", 104],
  ["COc1cc([C@@H]2c3cc4c(cc3[C@H](O)[C@H]3COC(=O)[C@@H]23)OCO4)cc(OC)c1OC", 109],
  ["CC(C)=CCC[C@](C)(O)[C@H]1CC[C@]2(C)[C@@H]1[C@H](O)C[C@@H]1[C@@]3(C)CC[C@H](O[C@@H]4O[C@H](CO)[C@@H](O)[C@H](O)[C@H]4O)C(C)(C)[C@@H]3CC[C@]12C [Ginsenoside Rh2]", 111]
]}

---

system: Mv4-11; assay: cell viability relative to DMSO control (bortezomib = 0%); higher = less growth inhibition; settings: 10 nM; 72 h
Recorded cell viability values for a group of compounds are listed next.
endpoint.label: cell viability

{"columns": ["compound", "endpoint.label", "measured"],
 "data": [
  ["O=c1[nH]c2ccccc2n1C1CCN(Cc2ccc(-c3[nH]c4cc5ncnc5cc4nc3-c3ccccc3)cc2)CC1", "cell viability", "103%"],
  ["COc1ccc2c(c[n+](C)c3c4cc5c(cc4ccc23)OCO5)c1OC [Chelerythrine chloride]", "cell viability", "112%"],
  ["CC(=O)N[C@H]1[C@@H](O[C@@H]2O[C@H](CC(O)[C@H]3O[C@@H](n4ccc(=O)[nH]c4=O)[C@H](O)[C@@H]3O)[C@H](O)[C@H](O)[C@H]2NC(=O)/C=C/CC(C)C)O[C@H](CO)[C@@H](N)[C@@H]1O (stereo not given in full)", "cell viability", "103%"],
  ["COc1ccc(N(C(=O)Oc2c(C)cccc2C)c2ccnc(Nc3ccc(N4CCN(C)CC4)cc3)n2)c(OC)c1", "cell viability", "108%"],
  ["CN[C@@H]1C[C@H]2O[C@@](C)([C@@H]1OC)n1c3ccccc3c3c4c(c5c6ccccc6n2c5c31)C(=O)NC4", "cell viability", "5.41%"]
]}
